Measurement Protocol: self-splicing fitness, log relative to wild type (ln ratio); higher = more splicing; Tetrahymena group I intron in knt gene, E. coli kanamycin selection, DiMSum; sequences stand for … in CUCUCU…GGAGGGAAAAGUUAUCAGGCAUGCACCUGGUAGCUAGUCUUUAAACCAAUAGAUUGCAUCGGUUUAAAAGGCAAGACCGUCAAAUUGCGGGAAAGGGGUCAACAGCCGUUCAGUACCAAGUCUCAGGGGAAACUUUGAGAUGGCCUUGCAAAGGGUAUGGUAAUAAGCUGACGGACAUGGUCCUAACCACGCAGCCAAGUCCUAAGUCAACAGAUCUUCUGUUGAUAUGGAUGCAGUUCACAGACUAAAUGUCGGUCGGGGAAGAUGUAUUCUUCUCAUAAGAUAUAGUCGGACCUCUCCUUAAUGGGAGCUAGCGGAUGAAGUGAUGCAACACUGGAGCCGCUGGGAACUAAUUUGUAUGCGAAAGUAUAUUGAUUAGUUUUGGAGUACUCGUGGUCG;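 further: selection with 25 µg/mL kanamycin versus none on LB agar overnight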
Condition Details: 37 °C
# if value of self-splicing fitness (ln) reaches -1, tag 1; if it stays below, tag -1

monomer_sequence=CGUCAGCAAUAUUACGCACU assigned_label=1

Enquiry: Identify whether the reported self-splicing fitness (ln) of the following sequence is -1 or greater: UUCCAGCAAUAUUACGCUUC
Return: -1

Enquiry: Identify whether the reported self-splicing fitness (ln) of the following sequence is -1 or greater: UAAGAGCAAUAUUACGCACC
Return: -1

Enquiry: Identify whether the reported self-splicing fitness (ln) of the following sequence is -1 or greater: GUCAAGCAAUAUUACGAACA
Return: -1

Enquiry: Identify whether the reported self-splicing fitness (ln) of the following sequence is -1 or greater: ACCUAGCAAUAUUACGAAUC
Return: -1

---

Measurement Protocol: self-splicing fitness, log relative to wild type (ln ratio); higher = more splicing; Tetrahymena group I intron in knt gene, E. coli kanamycin selection, DiMSum; sequences stand for … in CUCUCU…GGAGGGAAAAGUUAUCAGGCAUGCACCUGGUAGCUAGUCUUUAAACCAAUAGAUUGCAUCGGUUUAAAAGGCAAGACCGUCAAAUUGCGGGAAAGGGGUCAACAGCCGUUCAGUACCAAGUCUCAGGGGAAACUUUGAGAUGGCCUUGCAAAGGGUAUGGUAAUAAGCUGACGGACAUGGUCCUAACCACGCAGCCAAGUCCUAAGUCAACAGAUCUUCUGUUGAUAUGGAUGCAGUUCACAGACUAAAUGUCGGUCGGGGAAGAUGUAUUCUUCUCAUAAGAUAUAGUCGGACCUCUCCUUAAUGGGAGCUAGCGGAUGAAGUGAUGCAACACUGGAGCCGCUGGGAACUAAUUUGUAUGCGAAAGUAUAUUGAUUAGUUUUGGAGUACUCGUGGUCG
Condition Details: 30 °C
self-splicing fitness (ln) for assorted sequences
Returns: the value as a bare number; no unit string appended.

monomer_sequence=AGGAAGCAAUAUUACGGUUU measured_metric="self-splicing fitness (ln)" readout_value=-2.13

Here is another sequence to look at.
Enquiry: Assign self-splicing fitness (ln) to the following record: AUGCAGCAAUAUUACGUCCA
Return: -1.72

---

Measurement Protocol: self-splicing fitness, log relative to wild type (ln ratio); higher = more splicing; Tetrahymena group I intron in knt gene, E. coli kanamycin selection, DiMSum; sequences stand for … in CUCUCU…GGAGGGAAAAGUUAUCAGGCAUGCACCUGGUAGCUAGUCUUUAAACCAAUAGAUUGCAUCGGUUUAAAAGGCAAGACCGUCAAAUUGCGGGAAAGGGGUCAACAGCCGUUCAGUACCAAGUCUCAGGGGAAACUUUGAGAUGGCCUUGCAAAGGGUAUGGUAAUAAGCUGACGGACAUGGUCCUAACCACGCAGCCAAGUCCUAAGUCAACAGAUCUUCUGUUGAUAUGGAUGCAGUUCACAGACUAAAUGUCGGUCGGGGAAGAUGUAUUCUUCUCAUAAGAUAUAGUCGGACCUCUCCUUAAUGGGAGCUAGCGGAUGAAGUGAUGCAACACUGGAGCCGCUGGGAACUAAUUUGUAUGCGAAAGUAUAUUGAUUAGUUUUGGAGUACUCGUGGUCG
Condition Details: 30 °C
Class membership depends on self-splicing fitness (ln) alone; the intervals are bottom range: < -3; center range: ≥ -3 and < -2; top range: ≥ -2

Sample answers from the record:
monomer_sequence=CAUUAGCAAUAUUACGCGAG assigned_label="top range"
monomer_sequence=AGGAAGCAAUAUUACGAUGA assigned_label="top range"
monomer_sequence=CACAAGCAAUAUUACGUAGA assigned_label="top range"
monomer_sequence=CAUAAGCAAUAUUACGAAAC assigned_label="bottom range"
monomer_sequence=CAAGAGCAAUAUUACGGCCG assigned_label="top range"
monomer_sequence=CAUCAGCAAUAUUACGGGAA assigned_label="center range"
monomer_sequence=UAGAAGCAAUAUUACGUGUU assigned_label="bottom range"
monomer_sequence=ACGAAGCAAUAUUACGAUUG assigned_label="center range"

Enquiry: Any idea which band UUGUAGCAAUAUUACGGCUC is in?
Return: top range

Enquiry: Any idea which band GUGCAGCAAUAUUACGAUUA is in?
Return: top range

Enquiry: Any idea which band UUCAAGCAAUAUUACGUCUC is in?
Return: bottom range
